All values here come from the supplement of paper PMC9732359.

Assay: protein stability index of a GFP-peptide fusion (yeast GPS) (PSI 1-4); higher = more stable; sorted into four equal gates, so the index is relative within each strain
Conditions: ubr1∆
Measured Metric: protein stability index
One number for each entry.

Below, each entry is followed by its recorded protein stability index result.
ARDLATMTYEEVAKRLV [FAS1] : 3.02
VIYRGPEPSHIDQVMMS [RET1] : 2.77
HYGLAVDIYTHFTSPIR [DIS3] : 1.84
KEQENITIQDLLFPKST [DPB4] : 2.75
TLKKEWLKEYEDETLRR [YIL149C/MLP2] : 3.52

Go through the items and report each one's protein stability index.
1. NSEKYYDEDPYGFEDES [RPB2]
2. LISGPRNQILVSITDAP [YMR129W/POM152]
3. GPPYTTDEHLIFNSGKM [ISW2]
4. AAKLRTLDYAERHGYIR [RPL2A]
5. NISHLLEIASSIDCLLI [SWI1]

*A*
[3.25, 1.68, 2.99, 3.37, 2.04]

Go through the items and report each one's protein stability index.
1. IFFDEIDAVGGARFDDG [RPT1]
2. SLTLSFIRHVAKLNYKN [ECM29]

*A*
1: 3.11; 2: 2.92

Go through the items and report each one's protein stability index.
1. SNLEKLLFINSSKLVDV [YML103C/NUP188]
2. ANVNASAMPAPYMPYYY [DSN1]
3. IGQFLEPIDQNTGIVSS [RPT3]

*A*
1: 2.62; 2: 2.65; 3: 2.85

---

Experiment: protein stability index of a GFP-peptide fusion (yeast GPS) (PSI 1-4); higher = more stable; sorted into four equal gates, so the index is relative within each strain
Conditions: san1∆
Tag: Y if measured protein stability index is not below 3, N if it is.

*Q* Threshold query (protein stability index >= 3) on ISLYLLNLLSQNNTTKF [RPN12]
*A* N

---

Assay: protein stability index of a GFP-peptide fusion (yeast GPS) (PSI 1-4); higher = more stable; sorted into four equal gates, so the index is relative within each strain
Settings: ubr1∆
Tag: True if measured protein stability index is not below 2, False if it is.

LKRMEILKSPHLSKSPA [SIR4] : True
EWDLYPQGFSSVERGRK [REC8] : True
KERSDGKRHIFDVNTLC [CDC53] : False

*Q* Threshold query (protein stability index >= 2) on RLKGDIFCVGSGQTFAY [PRE2]
*A* False

*Q* And the next one, LEDLVFPTEIVGKRVRY [RPS7A] ?
*A* True

*Q* And the next one, SFKIFVDVLVISSHSHP [RRP42] ?
*A* False

*Q* And the next one, ADYWTHAYRDVLAQYHE [SNF6] ?
*A* True

*Q* And the next one, GTISIQLKNGLLEKYNT [MTR3] ?
*A* True

*Q* And the next one, DLKASQRVCLRSDSYML [RPT6] ?
*A* True

*Q* And the next one, TKTTGKCGSVTVRLIPA [RPS2] ?
*A* False

*Q* And the next one, EYIIAAIRKAPHNSKSL [RPN3] ?
*A* True

*Q* And the next one, LATPVQFELLSRRWRQR [BRR2] ?
*A* True

*Q* And the next one, KKHGKTDYFLPKNYSLH [YJL039C/NUP192] ?
*A* True

*Q* And the next one, TGTGLQDENIGLSMLAK [RPC31] ?
*A* True

*Q* And the next one, NVVEIWVFSYLRWFELK [SIR3] ?
*A* True

*Q* And the next one, TLLKKANRDDVKGRENE [RPC82] ?
*A* True

*Q* And the next one, KAKAQAQAQAQAQAQVY [PGD1] ?
*A* True
